target-entity: PLK2 (human)
assay-text: KINOMEscan competition binding
experimental-parameters: compound 10.0 µM
Each entry below lists one item and its recorded kinase still bound, per cent of control value.
measured-endpoint: kinase still bound, per cent of control (%)

{"columns": ["smiles-repr", "target-entity", "quantitative-result"],
 "data": [
  ["CCN(CCO)CCCOc1ccc2c(Nc3cc(CC(=O)Nc4cccc(F)c4)[nH]n3)ncnc2c1", "PLK2 (human)", 93],
  ["O=c1[nH]c2ccccc2n1C1CCN(Cc2ccc(-c3nc4cc5[nH]cnc5cc4nc3-c3ccccc3)cc2)CC1", "PLK2 (human)", 88],
  ["C=CC(=O)Nc1ccc(C(=O)c2sc(Nc3ccc(N4CCN(C)CC4)cc3OC)nc2N)cc1", "PLK2 (human)", 81],
  ["COc1cc2ncnc(Nc3cccc(Cl)c3)c2cc1OC", "PLK2 (human)", 44],
  ["CC(=O)c1c(C)c2cnc(Nc3ccc(N4CCNCC4)cn3)nc2n(C2CCCC2)c1=O", "PLK2 (human)", 14],
  ["COc1cc2c(Nc3ccc(NC(=O)c4ccccc4)cc3)ncnc2cc1OCCCN1CCOCC1", "PLK2 (human)", 100],
  ["CCN1CCN(Cc2ccc(NC(=O)c3ccc(C)c(/C=C/c4cnc5[nH]ccc5c4OC)c3)cc2C(F)(F)F)CC1", "PLK2 (human)", 60],
  ["CNC(=O)Nc1ccc(-c2nc(N3CC4CCC(C3)O4)c3cnn(C4CCC5(CC4)OCCO5)c3n2)cc1", "PLK2 (human)", 100],
  ["CCc1nc(-c2cccc(C)c2)c(-c2ccnc(NC(=O)c3ccccc3)c2)s1", "PLK2 (human)", 100]
]}
